Each entry below carries its reported log10 IC50.
# tested_on: Poly [ADP-ribose] polymerase 1 (Homo sapiens)
# test_name: Inhibition of PARP-1 derived from human HeLa cell nucleus
Answers are given as log10 of IC50 in nM.

structure_smiles_string: NC(=O)c1cccc2[nH]c(-c3ccc(OCCCC(=O)NO)cc3)nc12
tested_on: Poly [ADP-ribose] polymerase 1 (Homo sapiens)
parameter: log10 IC50
numeric_value: 1.15

Quick check: log10 IC50 of NC(=O)c1cccc2cn(-c3ccc(OCCCCCCCC(=O)NO)cc3)nc12 ?
2.39

# repeat for NC(=O)c1ccc(COc2ccc(-c3nc4c(C(N)=O)cccc4[nH]3)cc2)cc1
1.49

Proceed to NC(=O)c1cccc2[nH]c(-c3ccc(OCCCCC(=O)NO)cc3)nc12
1.08

Same lookup for NC(=O)/C=C/c1ccc(COc2ccc(-n3cc4cccc(C(N)=O)c4n3)cc2)cc1 , please.
2.36

====

# tested_on: Histone deacetylase
# test_name: Inhibition of HDAC derived from human HeLa cell nucleus
# Format: subcellular
parameter: IC50

Recorded results for 3 compounds are shown here.
structure_smiles_string: NC(=O)c1cccc2cn(-c3ccc(OCCCCCCC(=O)NO)cc3)nc12
IC50: > 30 µM

structure_smiles_string: NC(=O)c1cccc2cn(-c3ccc(OCCCCCCCC(=O)NO)cc3)nc12
IC50: 13.7 µM

structure_smiles_string: NC(=O)c1cccc2cn(-c3ccc(OCCCCCC(=O)NO)cc3)nc12
IC50: > 30 µM

Would you mind telling me what IC50 value was observed for NC(=O)c1cccc2[nH]c(-c3ccc(OCCCCCC(=O)NO)cc3)nc12 ?
5.5 µM

And the next one, NC(=O)/C=C/c1ccc(COc2ccc(-n3cc4cccc(C(N)=O)c4n3)cc2)cc1 ?
10.6 µM

# iterate: NC(=O)c1cccc2[nH]c(-c3ccc(OCCCC(=O)NO)cc3)nc12
> 30 µM

One more compound: NC(=O)c1cccc2[nH]c(-c3ccc(OCCCCC(=O)NO)cc3)nc12
> 30 µM

Let us now turn to NC(=O)c1ccc(COc2ccc(-c3nc4c(C(N)=O)cccc4[nH]3)cc2)cc1
7.7 µM

Param item: NC(=O)/C=C/c1ccc(COc2ccc(-c3nc4c(C(N)=O)cccc4[nH]3)cc2)cc1
7.9 µM

What about NC(=O)c1ccc(COc2ccc(-n3cc4cccc(C(N)=O)c4n3)cc2)cc1 ?
10.8 µM

// same read-out, input: NC(=O)c1cccc2cn(-c3ccc(OCCCC(=O)NO)cc3)nc12
> 30 µM

Also need NC(=O)c1cccc2cn(-c3ccc(OCCCCC(=O)NO)cc3)nc12 , thanks.
> 30 µM

Input NC(=O)c1cccc2[nH]c(-c3ccc(OCCCCCCCC(=O)NO)cc3)nc12
> 30 µM

Also need NC(=O)c1cccc2[nH]c(-c3ccc(OCCCCCCC(=O)NO)cc3)nc12 , thanks.
7 µM

====

# Lookup of reported pIC50 keyed by entry
# tested_on: Poly [ADP-ribose] polymerase 1 (Homo sapiens, UniProt P09874)
# Sequence (P09874 whole entry): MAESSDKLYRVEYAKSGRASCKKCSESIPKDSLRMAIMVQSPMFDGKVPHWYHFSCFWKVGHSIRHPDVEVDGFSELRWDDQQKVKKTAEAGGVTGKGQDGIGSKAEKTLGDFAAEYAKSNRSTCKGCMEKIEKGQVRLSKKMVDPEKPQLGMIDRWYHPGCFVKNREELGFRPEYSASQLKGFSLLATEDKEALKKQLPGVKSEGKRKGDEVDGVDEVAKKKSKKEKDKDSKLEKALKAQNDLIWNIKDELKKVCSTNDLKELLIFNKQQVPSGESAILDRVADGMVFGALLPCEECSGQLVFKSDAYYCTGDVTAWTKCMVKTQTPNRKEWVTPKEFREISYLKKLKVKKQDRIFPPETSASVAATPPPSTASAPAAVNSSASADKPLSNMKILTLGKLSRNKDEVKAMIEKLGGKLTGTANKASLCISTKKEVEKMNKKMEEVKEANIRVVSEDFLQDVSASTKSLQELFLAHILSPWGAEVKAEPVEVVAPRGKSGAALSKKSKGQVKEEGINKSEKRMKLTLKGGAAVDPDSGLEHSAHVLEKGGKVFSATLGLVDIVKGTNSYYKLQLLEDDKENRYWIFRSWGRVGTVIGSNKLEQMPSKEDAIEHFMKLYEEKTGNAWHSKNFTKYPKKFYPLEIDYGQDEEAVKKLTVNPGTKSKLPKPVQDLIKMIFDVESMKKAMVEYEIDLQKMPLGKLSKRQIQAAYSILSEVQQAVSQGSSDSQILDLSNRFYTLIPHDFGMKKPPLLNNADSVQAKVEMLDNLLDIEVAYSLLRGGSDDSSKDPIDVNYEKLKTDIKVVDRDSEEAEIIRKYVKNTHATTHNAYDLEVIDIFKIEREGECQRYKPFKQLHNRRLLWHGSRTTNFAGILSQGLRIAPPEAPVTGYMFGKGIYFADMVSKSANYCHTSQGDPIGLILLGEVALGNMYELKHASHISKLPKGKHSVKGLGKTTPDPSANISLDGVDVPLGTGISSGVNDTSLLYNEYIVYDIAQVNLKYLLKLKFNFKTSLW
# test_name: Inhibition of PARP-1 derived from human HeLa cell nucleus
Lab note — pIC50 values are minus log10 of concentrations in M.

Use these answered entries as a reference point.
structure_smiles_string: NC(=O)c1cccc2cn(-c3ccc(OCCCC(=O)NO)cc3)nc12
numeric_value: 6.99
//
structure_smiles_string: NC(=O)c1cccc2cn(-c3ccc(OCCCCCC(=O)NO)cc3)nc12
numeric_value: 6.55
//
structure_smiles_string: NC(=O)c1ccc(COc2ccc(-n3cc4cccc(C(N)=O)c4n3)cc2)cc1
numeric_value: 7.16
//
structure_smiles_string: NC(=O)c1cccc2cn(-c3ccc(OCCCCCCC(=O)NO)cc3)nc12
numeric_value: 6.89

Please turn your attention to the following entry.
Query (compound): NC(=O)/C=C/c1ccc(COc2ccc(-c3nc4c(C(N)=O)cccc4[nH]3)cc2)cc1 ; field requested: pIC50
7.56

Entry source: ChEMBL document CHEMBL5113426
